GI50: recorded values
Tested on: MDA-MB-468 breast
EXPERIMENTAL_PROTOCOL: NCI tumour cell line growth inhibition, 48 h

C[C@@H]1C[N+]2([O-])[C@H]3C4=CCC[C@@H]4CC[C@H]3[C@@]3(C)OC(=O)CC[C@]34CC[C@H]1[C@@H]42 (some centres undefined) :: > 60 µM
O=C(N/N=C\c1ccc(Cl)cc1)c1ccc2nc(-c3ccc(Br)cc3)[nH]c2c1 :: 2.02 µM
COc1cc2c3c(n(CCCN4CCOCC4)c(=O)c2cc1OC)-c1nc2c(cc1C3=O)OCO2 :: 0.13 µM

Qu. Look at this compound and give its reported GI50. "Nc1cc(-c2c[nH]c3ccc(Br)cc23)nc2cc(-c3c[nH]c4ccc(Br)cc34)nn12"
Ans. 1.59 µM

---

System: MDA-MB-468 breast
EXPERIMENTAL_PROTOCOL: NCI tumour cell line growth inhibition, 48 h; in the data active = GI50 below about 0.43 µM; inactive = the rest
Write down the outcome that applies. Available outcomes: True (active), False (inactive)

// known answers, use as guide
O=c1c2ccc3cccc4c(=O)c5ccc6cccc1c6c5-c2c34 :: False
O=c1c2cc(F)ccc2sc2c(N3CCNCC3)nc3ccccc3c12 :: False
O=C(Nc1cccc(Cl)c1)Nc1nc2ccc([N+](=O)[O-])cc2s1 :: False
O=C(Nc1cccc(-n2cc(-c3ccncc3)c(-c3ccc(Cl)c(O)c3)n2)c1)Nc1ccc(Cl)c(C(F)(F)F)c1 :: False
CN1CCN(CCCOc2ccc3nc(Nc4cc(Cl)cc(Cl)c4)ccc3c2)CC1 :: False

Qu. // return assay outcome for "COc1cc(NCCCCCN=C(N)N)c2ncccc2c1"
Ans. True

Qu. Could you kindly confirm the outcome this assay logged for "CCOc1nc(-c2ccccc2)cc2c(O)c(C(=O)N/N=C/c3ccc(O)cc3O)[nH]c(=O)c12" ?
Ans. False

Qu. What did this assay record as the result for Nc1nc2c(c3ncccc13)C(c1cccc(Br)c1)Cc1ncccc1-2 (stereo not drawn) ?
Ans. True

---

# maps each entry to its TGI
Tested on: MDA-MB-468 breast
EXPERIMENTAL_PROTOCOL: NCI tumour cell line growth inhibition, 48 h
The reply should contain only the number, in µM.

Examples from the recorded data:
CC(=O)Nc1cccc(Nc2nc(N[C@@H](C)c3ccccc3)c3ccccc3n2)c1 :: 0.818
Nc1nc2c(c3ncccc13)C(c1cccc(Br)c1)Cc1ncccc1-2 (stereo not given) :: 7.66
O=C(N/N=C\c1ccc(Cl)cc1)c1ccc2nc(-c3ccc(Br)cc3)[nH]c2c1 :: 3.86
CN1CCc2c(c3ccccc3c3ccccc23)C1 :: 9.94
O=C(Nc1cccc(-n2cc(-c3ccncc3)c(-c3ccc(Cl)c(O)c3)n2)c1)Nc1ccc(Cl)c(C(F)(F)F)c1 :: 2.23
O=C1Nc2cc(Cl)ccc2/C1=C\c1c(-c2ccc(F)cc2)nc2ccccn12 :: 2.25
CCCS(=O)(=O)Nc1ccc(F)c(C(=O)c2c[nH]c3ncc(Cl)cc23)c1F :: 49.5
O=C(N/N=C/c1ccccc1O)c1ccccc1O :: 5.56

API: the following record is the query input.
Qu. Form field: reported TGI of "COc1cc2ncn(-c3cc(O[C@H](C)c4ccccc4Cl)c(C(N)=O)s3)c2cc1OC"
Ans. 4
